Assay: Cmax in ICR mouse at 30 mg/kg, po administered as single dose via gavage by LC-MS/MS analysis
Assay type: ADME, organism-based
Parameters: route oral, dose 30 mg/kg
Details: in vivo
MEASURED ENDPOINT: Cmax

stdin: Given the entry C=CC(=O)Nc1ccc(-c2ccnc(Nc3ccc(N4CCOCC4)cc3)n2)cc1 , report its measured Cmax.
stdout: 2010 ng/mL

====

Experiment: Oral bioavailability in ICR mouse at 30 mg/kg administered as single dose via gavage by LC-MS/MS analysis
Type: ADME, organism-based
Conditions: in vivo
MEASURED ENDPOINT: bioavailability (%)
Give the quantity in %, number only.

stdin: Given the entry C=CC(=O)Nc1ccc(-c2ccnc(Nc3ccc(N4CCOCC4)cc3)n2)cc1 , report its measured bioavailability.
stdout: 23.8

Where do these numbers come from? They come from ChEMBL document CHEMBL4680201.
